# Measured Target: T1, 4H3915-AA
# T1 chain: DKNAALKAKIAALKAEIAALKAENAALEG
# Assay Notes: two-hybrid library CCmax;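 also: natural log of median RNA to DNA barcode read ratio; higher means stronger binding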
# Measurement Setup: mean of both orientations
Strictly below -1 in interaction score: MET. Otherwise: NOT MET.

Binder	Label Value
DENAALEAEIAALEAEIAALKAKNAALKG [4H1040-AA]	NOT MET
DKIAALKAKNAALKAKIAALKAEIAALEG [4H3049-AA]	MET
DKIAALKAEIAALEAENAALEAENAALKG [4H2580-AA]	NOT MET
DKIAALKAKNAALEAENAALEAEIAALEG [4H2961-AA]	MET

Moving on to another binder below.
Could you please tell me whether interaction score recorded for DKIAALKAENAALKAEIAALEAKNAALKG [4H2760-AA] is less than -1?
MET
